- protocol description: chemical genetic growth profiling, strain panel (AID 1159580);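 note: tested at 20 µM; growth read once vehicle control cultures reached saturation at 30 °C; 1 = growth at the plate median or of vehicle wells; lower values mean less growth of the strain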
- conditions used: S. cerevisiae deletion strains, growth OD, locus YLL001W, strain dnm1
Among all 5,500 compounds or so, about 2,000 (36%) were called active. Another 18% or so got no clear call; they are omitted. Cut-off read from the data, not from the text of the source: active = normalized growth mostly below about 0.91 (no sharp cut-off); inconclusive = no clear call, values can overlap the other calls; inactive = mostly above about 0.92. Some of the results follow.
I would appreciate it if you answered using one of these outcomes: yes (1) (active), no (0) (inactive)

Some solved cases for reference:
- compound: "O=c1c(-c2ccccc2)coc2cc(O)cc(O)c12"
  discrete label: "no (0)"
- compound: "O=C1CC[C@]23C=CC(=O)NCCCCNCCCNC(=O)/C=C/c4ccc(c2c4)O[C@@H]3C1"
  discrete label: "no (0)"
- compound: "CC[C@]12C=CCN3CC[C@@]4(c5ccc(OC)cc5N(C)C4[C@@](O)(C(=O)OC)[C@@H]1OC(C)=O)[C@@H]32 (stereo partly specified)"
  discrete label: "no (0)"
- compound: "Nc1nc(N)c2nc(-c3ccccc3)c(N)nc2n1"
  discrete label: "no (0)"
- compound: "COc1ccc2cc3[n+](cc2c1OC)CCc1cc2c(cc1-3)OCO2"
  discrete label: "no (0)"
- compound: "CC1(C)O[C@@H]2CC3C4C[C@H](F)C5=CC(=O)C=CC5(C)C4C(O)CC3(C)[C@]2(C(=O)CO)O1 (stereo partly specified)"
  discrete label: "no (0)"
- compound: "COc1c(O)cccc1O"
  discrete label: "no (0)"
- compound: "CC(=O)OCC(=O)[C@H]1CCC2C3CC=C4C[C@@H](O)CC[C@]4(C)C3CC[C@@]21C (stereo partly specified)"
  discrete label: "yes (1)"
- compound: "CC(=O)O.CC(=O)O.[Cd]"
  discrete label: "yes (1)"
- compound: "CC(=O)OCC(=O)[C@@]1(O)CCC2C3CC[C@@H]4C[C@H](O)CC[C@]4(C)C3C(=O)C[C@@]21C (stereo partly specified)"
  discrete label: "no (0)"

Lookup: Assay outcome for CN1CCN2c3ccccc3Cc3ccccc3C2C1 (stereo unspecified) : what was it?
Found: no (0)

Lookup: Called result for `O=c1c(-c2cc(O)c(O)c(O)c2)coc2cc(O)c(O)c(O)c12`
Found: no (0)

Lookup: Kindly provide the recorded test outcome for the following compound: `COc1cc2cc[n+]3cc4c(OC)c(OC)ccc4cc3c2cc1OC`
Found: no (0)

Lookup: How did this test come out for `Cn1c(=O)c2[nH]c(C3CCCC3)nc2n(C)c1=O` ?
Found: no (0)

Lookup: Could you kindly confirm the outcome this assay logged for `COc1ccc(-c2cc(=O)c3c(OC)c(OC)c(OC)c(OC)c3o2)cc1` ?
Found: no (0)
